target.or.test.system: T1, human TREM2 on BWZ cells (human, UniProt Q9NZC2 19-230)
T1 construct: whole, on cells; not tied to the cell line; also called BWZ Human TREM2
T1 sequence (looked up): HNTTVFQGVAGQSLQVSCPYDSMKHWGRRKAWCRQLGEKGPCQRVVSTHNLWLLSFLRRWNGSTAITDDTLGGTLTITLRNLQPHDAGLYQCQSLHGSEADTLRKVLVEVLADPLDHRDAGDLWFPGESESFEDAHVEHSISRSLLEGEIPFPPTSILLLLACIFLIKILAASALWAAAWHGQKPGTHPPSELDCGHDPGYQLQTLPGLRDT
test.method.notes: FACS, BWZ cells
readout.name: binding result

T1-39 (antibody, IgG1, V domains shown, huIgG1; also called TI-39; ADI-19113) VH: EVQLVESGGGLVKPGGSLRLSCAASGFTFSSYSMNWVRQAPGKGLEWVSSISSSSNYIYYADSVKGRFTISRDNAKNSLYLQMNSLRAEDTAVYYCARRGGSSSTGLLYWGQGTLVTVSS VL: DIQLTQSPSSVSASVGDRVTITCRASQDISSWLAWYQQKPGKAPKLLIYAASSLQSGVPSRFSGSGSGTDFTLTISSLQPEDFATYYCQQSLTHPTFGGGTKVEIK	no binding
T1-21 (antibody, IgG1, V domains shown, huIgG1; also called TI-21; ADI-19088) VH: EVQLVESGGGLVQPGGSLRLSCAASGFTFSSYSMNWVRQAPGKGLEWVSYISSSSSTIYYADSVKGRFTISRDNAKNSLYLQMNSLRAEDTAVYYCARGGPLGYGDYKGMDVWGQGTTVTVSS VL: DIQLTQSPSSLSASVGDRVTITCRASQSISSFLNWYQQKPGKAPKLLIYAASSLQSGVPSRFSGSGSGTDFTLTISSLQPEDFATYYCQQSYSDLTFGGGTKVEIK	no binding
T1-13 (antibody, IgG1, V domains shown, huIgG1; also called TI-13; ADI-19080) VH: EVQLVESGGGLVKPGGSLRLSCAASGFTFSSYSMNWVRQAPGKGLEWVSSISSSSNYIYYADSVKGRFTISRDNAKNSLYLQMNSLRAEDTAVYYCARGRYRRTGSLDVWGQGTMVTVSS VL: EIVLTQSPGTLSLSPGERATLSCRASQSVSSSFLAWYQQKPGQAPRLLIYGASSRATGIPDRFSGSGSGTDFTLTISRLEPEDFAVYYCQQLDSHPPTFGGGTKVEIK	no binding
